From: PubChem BioAssay (NCI)

tested on: NCI-H226 lung; assay: NCI-60 one-dose screen, 48 h (100 = growth as untreated, 0 = no growth, -100 = all killed); settings: 10 µM unless noted
Compounds without any hit were thinned out: in the full panel of roughly 83,000, 20% have a hit.
# label = True if growth < 80% else False

Use these answered entries as a reference point.
[[record]]
molecule = "CC(=O)N1C(=S)NC(=O)C1Cn1c(-c2ccccc2)nc2ccccc21 (stereo not drawn)"
class_label = "False"

[[record]]
molecule = "Cc1cc(NCCCCNc2ccnc3cc(Cl)ccc23)nc(Nc2ccc(C(=O)N3CCCC3)cc2)n1"
class_label = "False"

[[record]]
molecule = "COc1cc(/C=C/C(=O)c2ccc(Nc3nc(Nc4ccc(F)cc4)nc(Nc4ccc(Cl)cc4)n3)cc2)cc(OC)c1OC"
class_label = "True"

[[record]]
molecule = "Cc1ccc2c(c1)Sc1c(ccc3ccccc13)N2"
class_label = "True"


# input Please indicate whether the reported growth of Cc1ccc(N2CCN(C(=S)c3cccs3)CC2)cc1 is strictly below 80%.
# output False

# input Threshold test, growth < 80%: O=C1/C(=C\c2cccnc2)SC(=S)N1CCc1ccc(O)cc1
# output False

# input Is it true that growth reported for Cc1c(C(=O)OC(=NC2CCCCC2)NC2CCCCC2)sc2c1c(=O)nc1c(C#N)n[nH]n12 is less than 80%?
# output False

# input is_below(growth, 80%) for CC(C)(C)c1ccc(/C=C/C(=O)Nc2ccc(O)cc2)cc1 ?
# output True

# input Please indicate whether the reported growth of Clc1cccc(Cl)c1/C=C/c1cc(/C=C/c2c(Cl)cccc2Cl)[nH]n1 is strictly below 80%.
# output True

# input Bench note: check whether Cc1ccc(N(C(=O)CCc2c[nH]c3ccccc23)[C@H](C(=O)Nc2ccc(Cl)cc2)c2cccc([N+](=O)[O-])c2)cc1 shows growth below 80%
# output True

# input Say whether its growth is strictly beneath 80%. Entry: COc1ccc(NC(=O)CSc2nc(C)c(C(C)=O)n2-c2ccc(Cl)cc2)cc1
# output False

###

Tested on: NCI-H522 lung
Assay: NCI-60 one-dose screen, 48 h (100 = growth as untreated, 0 = no growth, -100 = all killed)
Conditions: 10 µM unless noted
Description: Growth inhibition of the NCI-H522 human Non-Small Cell Lung tumor cell line is measured as a screen for anti-cancer activity. Cells are grown in 96 well plates and exposed to the test compound for 48 hours. Compounds are tested at a single concentration, which is 10^-5 M for most compounds. The reported endpoint is percent growth (GI% or GIPRCNT), where numbers from 0 - 100% represent growth inhibition, and numbers from -100% - 0 represent cell death. […]
This is part of a sample that, as a whole, favours compounds with a hit. Of some 83,000 tested, about 20% had one in any assay.
measurement-label: growth (%)
One number for each entry, in %.

Examples with answers:
[[record]]
compound = "CCOC(=O)c1csc(NC(=O)COc2cccc(/C=C3\\Oc4cc(OC)ccc4C3=O)c2)n1"
assayed_target = "NCI-H522 lung"
measurement_label = "growth"
readout_units = "%"
measured = 49.8

[[record]]
compound = "CNc1ccc(NC)c2c1C(=O)c1ccccc1C2=O"
assayed_target = "NCI-H522 lung"
measurement_label = "growth"
readout_units = "%"
measured = 97.1

[[record]]
compound = "C=C(C)[C@@H]1CC[C@]2(C(=O)NC3CCCCC3)CC[C@]3(C)[C@H](CC[C@@H]4[C@@]5(C)CCCNC(C)(C)[C@@H]5CC[C@]43C)[C@@H]12"
assayed_target = "NCI-H522 lung"
measurement_label = "growth"
readout_units = "%"
measured = 60

[[record]]
compound = "COc1ccc2c(c1)O/C(=C/c1ccc(OCC(=O)c3ccccc3)cc1)C2=O"
assayed_target = "NCI-H522 lung"
measurement_label = "growth"
readout_units = "%"
measured = 94.5

[[record]]
compound = "Cc1ccc(C(=O)CSc2nc(-c3ccc(Br)cc3)c(C#N)c(=O)[nH]2)cc1"
assayed_target = "NCI-H522 lung"
measurement_label = "growth"
readout_units = "%"
measured = 90

[[record]]
compound = "COc1cc(N2C(=O)c3nccnc3C2=O)cc(OC)c1OC"
assayed_target = "NCI-H522 lung"
measurement_label = "growth"
readout_units = "%"
measured = 95.2


I would be grateful if you could provide growth for each of the following entries.
1. Cc1cccc(-c2nc(N(C)c3ccc4ncsc4c3)c3ccccc3n2)n1
2. Cc1ccc(Cl)c(NS(=O)(=O)c2ccc(-c3cnc(C4CC4)o3)cc2)c1
3. CCCCN(CCCC)CC(C)(C)C(O)c1ccc(OC)c2ccccc12 (stereo unspecified)
4. CC(C)=C[C@@H]1c2c(c3ccccc3n(C)c2=O)O[C@H]2c3c(c4ccccc4n(C)c3=O)OC(C)(C)[C@@H]12
5. COc1ccccc1N1C(=O)/C(=C/C2=Cc3ccccc3OC2)SC1=S
6. COc1ccc(C(=NN=C(N)N)c2ccc(OC)cc2)cc1
7. CNC(=O)NCC1OC(n2cnc3c(NC(=O)Nc4ccccc4)ncnc32)C(O[Si](C)(C)C(C)(C)C)C1CC(=O)N(C)OC (stereo unspecified)
8. NC(=S)N/N=C/Cc1ccccc1

# output
1. 30.4
2. 3.84
3. 4.57
4. 53.4
5. 90
6. 34
7. 65.9
8. 100

Would you mind listing growth for each of the following compounds?
1. CC(=O)OC[C@H]1OC(Sc2sc(C(=O)c3ccc(Br)cc3)c(N)c2-c2nc3ccccc3s2)[C@H](OC(C)=O)[C@@H](OC(C)=O)[C@@H]1OC(C)=O (stereo partly specified)
2. c1csc(-c2c3ccc(=[N+]4CCCCC4)cc-3oc3cc(N4CCCCC4)ccc23)c1
3. Cc1cc(NCc2cc(Nc3ccnc4cc(Cl)ccc34)ccc2F)nc(N2CCN(C)CC2)n1
4. OC(c1cccc(-n2ccc(C(F)(F)F)n2)c1)c1cnccc1NC1CCCCCC1 (stereo unspecified)
5. N#Cc1c(N)nc2c(C#N)c(NC(=O)c3ccccc3)nn2c1-c1ccccc1
6. CCOC(=O)c1c(/C=C/C(=O)O)nc2ccccc2c1/C=C/c1ccccc1

# output
[63.8, -70, -30.8, 43.9, 86.5, 40.9]

// each listed compound needs a value for growth
1. CCC1(C2CCCC2)NC(=O)NC1=O (stereo unspecified)
2. N#CCN1C(=O)C2C3=C(CCCC3)SC2N=C1CN1CCCC1 (stereo unspecified)
3. O=C(COc1ccc(/C=C2\Oc3ccccc3C2=O)cc1)c1ccc(Cl)cc1
4. Cc1ccc2c(c1)Sc1c(ccc3ccccc13)N2
5. N#Cc1nc(C#N)c(Sc2ccccc2)c(Sc2ccccc2)c1Sc1ccccc1
6. Cc1ccc(S(=O)(=O)N/N=C\c2cc(Cl)ccc2O)cc1

# output
1. 103
2. 92.5
3. 96.1
4. 61.3
5. -67.2
6. 80.3

Kindly give each listed record's growth.
1. CC(C)CCC[C@@H](C)[C@H]1CC[C@H]2[C@@H](Nc3ccc(O)cc3)CCC[C@]12C
2. CCc1c2c(nc3ccc(OC(=O)OCc4ccc(B5OC(C)(C)C(C)(C)O5)cc4)cc13)-c1cc3c(c(=O)n1C2)COC(=O)[C@]3(O)CC
3. O=C1Nc2ccc(F)cc2C12Nc1cc(Cl)ccc1S2 (stereo unspecified)
4. O=C1C=C[C@]2(C[C@@H](c3cccc(C(F)(F)F)c3)O[C@@H](c3cccc(C(F)(F)F)c3)O2)O1
5. N#Cc1c(-c2cccc(Cl)c2)cc(-c2cccc(F)c2)[nH]c1=O

# output
-42.6
-28.3
90.9
-78.8
85

###

test system: UACC-257 melanoma; experiment: NCI-60 one-dose screen, 48 h; conditions: 10 µM unless noted
Compounds without any hit were thinned out: in the full panel of roughly 83,000, 20% have a hit. Activity calls are given as the source filed them. Rule for the calls: active = growth percent below 10; inactive = the rest.
Respond with a class label; see true (1) for active, false (0) for inactive

Solved entries:
[[record]]
molecule = "COC(=O)[C@]12CC[C@@H](C)[C@H](C)[C@@H]1C1=CC[C@@H]3[C@@]4(C)C(C=O)=C[C@@](C)(COC(=O)c5ccco5)C4=CC[C@@]3(C)[C@]1(C)CC2"
class_label = "true (1)"

[[record]]
molecule = "COc1ccc2[nH]c(O)c(/C=c3/cc4c(c(-c5cc(OC)c(OC)c(OC)c5)n3)=Nc3ccccc3-4)c2c1"
class_label = "false (0)"

[[record]]
molecule = "Cc1ccc(-c2cc(-c3cccnc3)[nH]c(=O)c2C#N)cc1"
class_label = "false (0)"

[[record]]
molecule = "COc1ccc(N=C(c2ccccc2)C2C(=O)c3ccccc3C2=O)cc1"
class_label = "false (0)"

[[record]]
molecule = "Cc1cc(C)c(-c2c(C)cc(C)cc2CBr)c(CBr)c1"
class_label = "false (0)"

[[record]]
molecule = "N=C1C(c2nc(-c3ccc(Br)cc3)cs2)=C(O)CN1Cc1cccnc1"
class_label = "false (0)"

[[record]]
molecule = "C=C(C)[C@@H]1CC=C2c3sc(-c4ccc(C)cc4)nc3C[C@@H](C)[C@]2(C)C1"
class_label = "false (0)"

[[record]]
molecule = "O=c1cc(-c2ccc(Cl)cc2)[nH]c2ccccc12"
class_label = "false (0)"


# input Test call for this molecule, please: CC/C=C\C[C@H](O)C/C=C1/C(=O)C=C[C@@H]1C/C=C\CCCC(=O)OC
# output true (1)

# input Tell me the recorded outcome of this test for O=C(c1ccccc1)N1N=C(c2ccccc2)CC1c1nnc2n(Cc3ccccc3)c(=O)c3c4c(sc3n12)CCCC4 (stereo not drawn) .
# output false (0)

# input Please state the recorded outcome for this molecule: Nc1n[nH]c2cc(F)c([C@@H]3Nc4c(F)cc5[nH]ncc5c4[C@H]4C5CCC(C5)[C@@H]34)cc12 (stereo partly drawn)
# output false (0)

# input So what was the verdict on C[C@H]1[C@H]2[C@H]3CC[C@@H]4[C@@]5(C)C/C(=C/c6ccco6)C(=O)C(C)(C)[C@@H]5CC[C@@]4(C)[C@]3(C)CC[C@]23CO[C@]1(C)[C@@H](C(=O)/C=C\c1ccco1)C3 in this test?
# output false (0)

# input For CC(C)=C[C@@H]1c2c(c3ccccc3n(C)c2=O)O[C@H]2c3c(c4ccccc4n(C)c3=O)OC(C)(C)[C@@H]12 , which call appears in the assay record?
# output false (0)

# input Hello, I am checking results. What call was entered for Cc1cc(Cl)ccc1Nc1nc(C(F)(F)F)ccc1C(=O)N/N=C/c1ccc(N(C)C)cc1 ?
# output false (0)

# input Hi team, can someone confirm the assay call for CCCCCc1nc2c(c3c1CCCC3)CCCC2 ?
# output false (0)
